system: OVCAR-3 ovarian; assay: NCI tumour cell line growth inhibition, 48 h
measuredEndpoint: GI50

Consider the reported GI50 for these compounds:
C[n+]1c(/C=C/c2c(O)ccc3ccccc23)ccc2ccccc21; 2.29 µM
CCCC(=O)Nc1cn(COC)c(C(=O)N2C[C@@H]3C[C@]34C2=CC(=O)c2[nH]cc(C)c24)n1; 2.98 µM

Moving on to the next compound.
Ask | Look up and report measured GI50 for this entry: NC(N)=N/N=C/c1c(Cl)cccc1Cl
Reply | 28.1 µM

###

test system: DU-145 prostate; assay: NCI tumour cell line growth inhibition, 48 h
Entries annotated with measured GI50

COc1ccc2nc3ccccc3c(NCc3ccc(F)cc3)c2c1; 2.09 µM
COc1cc(C(=O)N2CCN(C(=O)c3cc(OC)c(OC)c(OC)c3)C2=S)cc(OC)c1OC; 13.6 µM
NC(=O)c1c(NC(=O)c2ccccc2)sc2c1CCC(=O)C2; 4.14 µM
O=C(Cc1ccc(F)c(Cl)c1)Nc1cc(C2(C(F)(F)F)CC2)nn1CC1CCCCC1; 5.39 µM

Ask | Quote GI50 reported for O=C(Nc1cccc(C(F)(F)F)c1)c1ccc(NC2=C(Cl)C(=O)N(Cc3ccc(Cl)cc3Cl)C2=O)cc1 please.
Reply | 11.8 µM

Ask | Output measured GI50 for this item: O=C(Nc1ccc(Br)cc1F)c1cc(Cl)ccc1O
Reply | 0.899 µM

Ask | Look up and state reported GI50 for Cc1cc(N[C@@H]2CCC[C@H](Nc3ccnc4cc(Cl)ccc34)C2)nc(N2CCCCCC2)n1
Reply | 2.99 µM

Ask | Return GI50 (reported value) for this compound: CN(C)CC[C@H](CSc1ccccc1)Nc1ccc(S(=O)(=O)NC(=O)c2ccc(N3CCN(Cc4ccccc4-c4ccc(Cl)cc4)CC3)cc2)cc1[N+](=O)[O-]
Reply | 23 µM

###

Overview of recorded TGI for various molecules
tested on: HL-60(TB) leukemia; assay: NCI tumour cell line growth inhibition, 48 h

Solved entries:
COC(=O)/C(=C/c1ccc(OC)cc1)C(C(=O)O)=C1CCCC1; > 100 µM
CN(C)C(=S)/N=c1\sn(C)/c(=N\C(=S)N(C)C)n1C; > 100 µM
CC(C)C1=Cc2ccc3c(c2C(=O)C1=O)CCCC3(C)C; > 100 µM
COc1cc(OC)cc(C(=O)CC(=O)c2cc(OC)cc(OC)c2)c1; > 100 µM
Cc1cccc(C)c1NC(=O)C(Cc1c[nH]c2ccccc12)NC(=O)OCc1ccccc1 (stereo unspecified); 44.3 µM
COc1cccc(N2C(Cl)C(=O)C2c2c[nH]c3ccccc23)c1 (stereo unspecified); > 100 µM

Now consider a different molecule.
Ask | Give the reported TGI for this molecule. O=C(Cc1ccc(F)c(Cl)c1)Nc1cc(C2(C(F)(F)F)CC2)nn1CC1CCCCC1
Reply | 7.79 µM

###

system: 786-0 renal; test: NCI tumour cell line growth inhibition, 48 h; in the data active means GI50 below about 0.43 µM; inactive means the rest
In this exercise, the only acceptable responses are Yes for active, No for inactive

Cc1nnc(Nc2ccc(NC(=O)Nc3ccc(Cl)cc3)cc2)c2ccccc12; No

Ask | How was CC(NCCC(c1ccccc1)c1ccccc1)c1ccccc1 (stereo not given) classified in this test?
Reply | No

Ask | Fill in: this test's call for CCC[CH2][Sn]([CH2]CCC)([O]C(=O)c1ccc(OC)c(OC)c1OC)[O][Sn]([CH2]CCC)([CH2]CCC)[O]C(=O)c1ccc(OC)c(OC)c1OC is ___
Reply | Yes

Ask | Test call, this compound: Nc1ncn([C@@H]2O[C@H](CO)[C@@H](O)[C@H]2O)c(=O)n1
Reply | No

Ask | Test call for this compound, please: O=C(Cc1ccc(F)c(Cl)c1)Nc1cc(C2(C(F)(F)F)CC2)nn1CC1CCCCC1
Reply | No

Ask | Per the assay record, what outcome was assigned to CC1(C)OC2C(CO[Si](C)(C)C(C)(C)C)OC(n3c(I)c(C#C[Si](C)(C)C)c(=O)[nH]c3=O)C2O1 (stereo not given) ?
Reply | No

###

system: NCI/ADR-RES ovarian; assay: NCI tumour cell line growth inhibition, 48 h
measuredEndpoint: GI50

C[C@@H]1C[C@@H]([C@@H](CC2CC(=O)NC(=O)C2)OC(=O)CC(=O)c2ccccc2)C(=O)[C@@H](C)C1; 689 nM
COc1cnc2c(c1)C(=O)c1c-2n(CCCN2CCOCC2)c(=O)c2cc(Cl)ccc12; 259 nM
CC1(C)OC2C(CO[Si](C)(C)C(C)(C)C)OC(n3c(I)c(C#C[Si](C)(C)C)c(=O)[nH]c3=O)C2O1 (centres undefined); 20400 nM

Now take the following molecule into account.
Ask | # assay system NCI/ADR-RES ovarian: give GI50 of N=c1c2c(-c3ccccc3)c(-c3ccccc3)n(Cc3ccccc3)c2ncn1C1CCC(O)CC1 (centres undefined)
Reply | 717 nM

###

tested on: RXF 393 renal; experiment: NCI tumour cell line growth inhibition, 48 h
measuredEndpoint: TGI (µM)
Write down the numeric answer in µM and omit the unit.

Recorded results for 5 compounds are shown here.
CC(=NNC(=S)Nc1ccccc1)c1cccc(C(C)=NNC(=S)Nc2ccccc2)n1; 36.6
CC(C)c1cc2c(c(O)c1O)[C@@]1(C(=O)O)CCCC(C)(C)[C@@H]1CC2; 66.7
CC1(C)COC(c2cccc3c2C(=O)c2cccc(Cl)c2-3)=N1; 68.2
CC(=O)ON1CCCC(P(=O)(OCCSC(=O)C(C)(C)C)OCCSC(=O)C(C)(C)C)C1=O (stereo not given); 7.02
COc1cc(C(=O)N2CCN(C(=O)c3cc(OC)c(OC)c(OC)c3)C2=S)cc(OC)c1OC; 28.1

Ask | Recall and state the measured TGI for O=C(Nc1ccc(Br)cc1F)c1cc(Cl)ccc1O .
Reply | 3.99

Ask | Indicate its recorded TGI; the compound in question is C[N+](C)([O-])CCOc1cc2c(c3ccccc13)-c1ccccc1C2=O
Reply | 33.2

Ask | Using the record for CC(C)SC(=S)Sc1c(Cl)c(Cl)nc(Cl)c1Cl , state its measured TGI.
Reply | 9.17

Ask | Specify measured TGI for COC(=O)/C=C\C(C#N)(C#N)N=Cc1ccc(C)cc1 .
Reply | 3.9

Ask | Entry NC(=O)c1c(NC(=O)c2ccccc2)sc2c1CCC(=O)C2 needs its TGI filled in; supply it.
Reply | 5.46

Ask | Complete the entry with TGI for C=C1C(=O)CC2C1CC(=O)/C(C)=C/CCC(C)(O)C2O (stereo not given)
Reply | 11.6

Ask | Return reported TGI. Input compound: C[n+]1c(/C=C/c2c(O)ccc3ccccc23)ccc2ccccc21
Reply | 10.7

Ask | Give TGI for the following compound: COc1cc2c(cc1OC)C(C(c1ccccc1)c1ccccc1)N(C)CC2 (stereo not given)
Reply | 60.2

###

tested on: BT-549 breast; experiment: NCI tumour cell line growth inhibition, 48 h
measuredEndpoint: log10 TGI (log10 of the value in µM)
Base-10 log of TGI, unit µM.

COC(=O)[C@]12CC[C@@H](C)[C@H](C)[C@@H]1C1=CC[C@@H]3[C@@]4(C)C[C@@H](O)[C@H](O)[C@@](C)(CO)C4=CC[C@@]3(C)[C@]1(C)CC2; 1.50
Cc1c2cc[n+](C)c(C)c2cc2c1[nH]c1ccccc12; 1.28
Cc1nnc(Nc2ccc(NC(=O)Nc3ccc(Cl)cc3)cc2)c2ccccc12; 0.75
CC(=O)Nc1ccc(-c2csc(Nc3cccc(-c4csc(C)n4)c3)n2)cc1; 1.65
COc1ccc2nc3ccccc3c(NCc3ccc(F)cc3)c2c1; 1.06

# context switch: different molecule, same log10 TGI
Ask | Report log10 TGI, nothing else, for this molecule: Cc1nn(-c2ccccc2)c2c1C(c1cc3ccccc3nc1Cl)NC(=O)N2 (centres undefined)
Reply | 1.57

###

Here the recorded TGI is given for each entry.
system: SK-OV-3 ovarian; assay: NCI tumour cell line growth inhibition, 48 h

CCN1CCN(c2cc(C)c3cc(NC(=O)c4ccc(OC)c(OC)c4)ccc3n2)CC1; > 73.3 µM
Clc1ccc(-c2nnc3sc4nc5ccccc5c-4nn23)c(Cl)c1; > 100 µM
COc1ccc(C(=O)/C=C/c2ccc(OCCCOc3ccc(/C=C/C(=O)c4ccc(OC)cc4)cc3)cc2)cc1; > 100 µM
CCN1CN(c2ccccc2)C2(CCN(CC3COc4ccccc4O3)CC2)C1=O (configuration not stated); > 100 µM
COC(C)(C)C1(O)CC[C@@H](C)CC1=O (some centres not stated); > 100 µM

Ask | Fill in TGI for record O=C(OC1CCC(=C2SCCCS2)[C@H]1C1SCCCS1)c1ccccc1 (some centres not stated)
Reply | > 100 µM

Ask | Give a short answer stating reported TGI for CCOC(=O)Nc1cc2c(c(N)n1)N=C(c1ccccc1)CO2 .
Reply | 9.4 µM

Ask | Provide only the value of recorded TGI for CCCCCCCCCCCC[S+](C)C
Reply | 21.7 µM

Ask | Please list TGI recorded for the compound O=C1NC2c3c(I)sc(I)c3C(O)C2O1 (configuration not stated)
Reply | > 100 µM

Ask | Let me know recorded TGI for O=c1c(F)cn(Cc2ccc(C34CC5CC(CC(C5)C3)C4)c(O)c2)c(=O)n1Cc1ccc(C23CC4CC(CC(C4)C2)C3)c(O)c1 , thanks.
Reply | 33.1 µM

Ask | // Input: CN(C)CCC(/C=C/c1ccccc1)=N\Nc1ccccc1 . Output its TGI only.
Reply | 9.8 µM

Ask | Query TGI for Cc1c(O)nc(-n2[nH]c3c(c2=O)CCCC3)[nH]c1=O
Reply | > 100 µM

Ask | Quote TGI reported for Cc1cc2c(=O)c3ccccc3[nH]c2c(C(N)=O)c1C please.
Reply | > 100 µM

Ask | Quick one: give measured TGI for Oc1cc(Cl)cc2cccnc12
Reply | > 100 µM

Ask | In one line, give reported TGI of the entry CC(=O)NC1C(OCc2ccccc2)OC(CO)C(O)C1OCC(=O)N[C@@H](C)C(=O)N[C@H](CCC(=O)NCCCNc1c2ccccc2nc2cccc([N+](=O)[O-])c12)C(N)=O (some centres not stated) .
Reply | 0.99 µM

Ask | // fetch TGI given entry CCOS(C)(=O)=O
Reply | > 100 µM

Ask | Tell me its TGI given NC(=O)c1c(NC(=O)c2ccccc2)sc2c1CCC(=O)C2 as the entry.
Reply | > 100 µM

Ask | Return value of TGI for input O=c1oc2ccc(-c3ccc(F)cc3F)cc2c(=O)n1-c1cccc(C(F)(F)F)c1 , no commentary.
Reply | 4.54 µM

Ask | Indicate its recorded TGI; the compound in question is C/C(=N\N=C1/C(=O)OC(c2ccccc2)=C1C(=O)c1ccccc1)c1ccc([N+](=O)[O-])cc1
Reply | > 100 µM

Ask | Supply measured TGI of NC(N)=NCCCC(=O)O in your reply.
Reply | > 100 µM

Ask | Please list TGI recorded for the compound O=C1CCC2(c3ccc(Cl)cc3)Nc3cc(Cl)ccc3N12 (configuration not stated)
Reply | 40.1 µM

Ask | Could you please provide reported TGI for O=C(NC[C@H](O)CN1CCc2ccccc2C1)c1cc(NC2COC2)ncn1 ? Thanks!
Reply | > 100 µM
